target: NR2F6 (Homo sapiens, UniProt P10588); construct: expressed in transfected cells; also transient transfection; experiment: NR2F6 agonist screening, Firefly signal cmpd/DMSO; format: cell-based; details: Table 15; 10 uM
Sequence (P10588 whole entry): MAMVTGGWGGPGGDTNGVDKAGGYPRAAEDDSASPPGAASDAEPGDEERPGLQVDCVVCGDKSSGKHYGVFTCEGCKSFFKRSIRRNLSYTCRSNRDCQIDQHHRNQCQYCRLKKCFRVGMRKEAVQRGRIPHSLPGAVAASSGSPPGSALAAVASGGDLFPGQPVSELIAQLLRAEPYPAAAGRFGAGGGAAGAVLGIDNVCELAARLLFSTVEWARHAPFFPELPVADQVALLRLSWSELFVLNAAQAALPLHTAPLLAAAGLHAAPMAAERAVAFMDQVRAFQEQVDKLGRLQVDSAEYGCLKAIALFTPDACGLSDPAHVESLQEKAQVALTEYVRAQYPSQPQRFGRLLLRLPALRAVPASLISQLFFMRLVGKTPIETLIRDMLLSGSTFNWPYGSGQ
One threshold, 2, splits the recorded Firefly F4, cmpd/DMSO (mean) values: lower ones are 1.0, equal or higher ones are 0.0.

These recorded examples may help you get a feel for the data.
- molecule: "CCOC(=O)c1cnc2c(C)cc(C)cc2c1NCCCOC [Compound Z71]"
  assigned.class: 1.0
- molecule: "CCOC(=O)c1cnc2c(C)cc(C)cc2c1NCCCN1CCCCC1 [Compound Z8]"
  assigned.class: 0.0
- molecule: "CCOC(=O)c1cnc2c(C)cc(C)cc2c1N1CCC(O)CC1 [Compound Z78]"
  assigned.class: 1.0
- molecule: "CCOC(=O)c1cnc2c(C)cc(C)cc2c1NCc1ccc(Cl)cc1 [Compound Z75]"
  assigned.class: 1.0

# input Threshold test, Firefly F4, cmpd/DMSO (mean) < 2: CC(=O)Nc1ccc(Br)c2nonc12 [Compound Z14]
# output 1.0

# input Threshold test, Firefly F4, cmpd/DMSO (mean) < 2: CCOC(=O)c1cnc2c(C)cc(C)cc2c1N1CCC(C)CC1 [Compound Z76]
# output 1.0

# input Threshold test, Firefly F4, cmpd/DMSO (mean) < 2: CC(=O)Nc1ccc(NS(C)(=O)=O)c2nonc12 [Compound Z15]
# output 1.0

# input Threshold test, Firefly F4, cmpd/DMSO (mean) < 2: COc1cccc(-c2noc(Cn3ncccc3=O)n2)c1 [Compound Z5]
# output 1.0

# input Threshold test, Firefly F4, cmpd/DMSO (mean) < 2: CCOC(=O)c1cnc2c(C)cc(C)cc2c1NCCCN1CCCCC1 [Compound Z10]
# output 1.0

# input Threshold test, Firefly F4, cmpd/DMSO (mean) < 2: CCOC(=O)c1cnc2c(C)cc(C)cc2c1NCCCN1CCCC1 [Compound Z61]
# output 0.0

# input Threshold test, Firefly F4, cmpd/DMSO (mean) < 2: CCOC(=O)c1cnc2c(C)cc(C)cc2c1NCCCN1CCCCC1 [Compound Z9]
# output 0.0

# input Threshold test, Firefly F4, cmpd/DMSO (mean) < 2: Cc1ccc(NC(=O)c2noc3c2CC(C)(C)CC3)cc1C [Compound Z1]
# output 1.0
